// data source = a melting point compilation (Tetko et al.; mined from patent text by program, amines drawn as free bases though some values may be those of a salt)

melting point values by entry
quantity.measured: melting point

Cc1cccc(C(C#N)N2CCOCC2)c1 (configuration not stated): 59 to 60 °C
CCOC(=O)c1cc(=O)c2cc(OCC(O)COc3ccc(C#N)cc3)ccc2o1 (configuration not stated): 150 to 152 °C
CCCOc1cc(C2(C)CNC(=O)O2)ccc1OC (configuration not stated): 78 °C
CC(C(O)c1ccc(O[Si](C(C)C)(C(C)C)C(C)C)c(F)c1)N1CCC(O)(c2ccc(F)cc2)CC1 (configuration not stated): 159 to 160 °C
CC(C)N1C(=O)NC(c2ccc3c(c2)OCCO3)c2cc3c(cc21)OCCO3 (configuration not stated): 92 to 95 °C
CCCOc1ccc(-c2ccc3c(c2)C=C(C(=O)OC)CCS3(=O)=O)cc1: 153 to 155 °C
C=C1C(=O)N(C)CCC1c1cccc(OC)c1 (configuration not stated): 67 to 70 °C
COC(=O)C(C)Oc1cc(C)ccc1C=O (configuration not stated): 65 to 68 °C
CCc1c(-c2cccnn2)ssc1=S: 130 °C
O=C(CCN1CCCC1)Nc1ccc2[nH]c3ccc(NC(=O)CCN4CCCC4)cc3c(=O)c2c1: > 320 °C
CCOc1cc2c(Nc3ccc(Sc4nccn4C)c(Cl)c3)c(C#N)cnc2cc1F: 251 to 254 °C
CN(C)CCOCC(O)c1ccc2cc(OCc3ccccc3)ccc2c1 (configuration not stated): 100 °C
CCOC(=O)C1COc2cc(C=O)c(Cl)c(Cl)c2O1 (configuration not stated): 101 to 102 °C
CCOC(=O)c1ncc2[nH]c3c([N+](=O)[O-])cccc3c2n1: 318 to 325 °C
Clc1ccc(-c2nc(Cl)c3ccccc3n2)cc1: 166 to 167 °C
O=C(CCCCCN1CCN(c2cccc(OC(F)(F)F)c2)CC1)N1Cc2ccccc2C1: 89 °C
CN1CCC(c2c[nH]c3ccc(NC(=O)C4CCCC4)nc23)CC1: 119 to 121 °C
Cc1nc(N2CCc3ccccc3CC2)c(C#N)c(=O)n1CC#N: > 200 °C
N#Cc1ccc(-c2ccc(OS(N)(=O)=O)c(Cl)c2)cc1Cn1cncn1: 155 to 158 °C
c1ccc2c(c1)CC1=C2CCCC1: 57 °C
Nc1cccc2cc(-c3nccs3)[nH]c12: 173 to 174 °C
CCCCn1c(C)c(C(=O)c2ccccc2C(=O)O)c2ccccc21: 88 to 92 °C
OCC1(CO)CC=CC1: 168 to 170 °C
CCCCC(Cc1ccc(OCCNC(=O)c2ccc(-c3cccc(O)c3)cc2)cc1)C(=O)O (configuration not stated): 98 to 100 °C
CCCCc1nc2ccccn2c(=O)c1-c1ccc(N2CCN(C(=O)OC(C)(C)C)CC2)nc1: 126 to 128 °C
CC(C)Oc1c(-c2ccc3c(c2)[C@@H](N2Cc4ccccc4C2=O)[C@H](O)C(C)(C)O3)c(=O)c1=O (relative stereo): > 250 °C
ClCc1ccc2c(c1)Nc1nccnc1S2: 161 to 162 °C
O=c1oc(OCCCCBr)c(Cl)c2ccccc12: 75 to 77 °C
NC(=NC(=O)Cn1c(Cl)ccc1Cl)NC(=O)Cc1ccccc1: 181 to 183 °C
CCc1[nH]n(C2CCCC2)c2nc(-c3ccccc3-n3ccnc3)nc(=O)c1-2: 192 to 194 °C
CNc1cc(F)ccc1C(=O)CSC: 61.5 to 63 °C
COc1ccc(-c2ccc3cnc(Nc4ccc5c(c4)N(S(C)(=O)=O)CCC5)nn23)cn1: 202 to 203 °C
Cc1cc(C)cc(C(=O)N2CCN(C(=O)CCNC3CCN(Cc4ccccc4)CC3)C(c3ccc(Cl)c(Cl)c3)C2)c1 (configuration not stated): 51 to 54 °C
COc1ccccc1N(CC(=O)OC(C)(C)C)C(=O)CNC(=O)Nc1cccc(C)c1: 171 °C
c1csc(Nc2ccnc3cn[nH]c23)c1: 255 to 259 °C
COc1ccc2c(c1)C(CCNC(=O)C(F)(F)F)C1(CC2)Cc2ccccc2C1 (configuration not stated): 149 to 152 °C
COC(=O)c1cc(N2CCSCC2)c(C(F)(F)F)cc1[N+](=O)[O-]: 68 to 82 °C
O=C1N=NC(=O)c2c1[nH]c1cc(Cl)ccc21: > 250 °C
COC(=O)[C@@]12CO[C@@H](C(C)(C)C)N1C(=O)[C@@H](Cc1ccccc1)C2: 130 to 131 °C
Cc1nnc(-c2nnc(S)o2)o1: 150 to 151 °C
COC(=O)CN1C(=O)CN=C(c2ccccc2Cl)c2ccccc21: 166 to 168 °C
O=C(Nc1nccc2ccc(CO)cc12)c1ccccc1: 190 to 193 °C
